Let's look at some molecules and their measured GI50.
# Tested on: HCT-116
# test-protocol: NCI tumour cell line growth inhibition, 48 h
Activity calls are given as the source filed them. Cut-off read from the data, not from the text of the source: active = GI50 up to about 1.1 µM and inactive = higher.

Record `Oc1cc(O)cc(/C=C/c2ccc(O)c(O)c2)c1` : what is its GI50 with HCT-116?
7.45 µM (inactive)

Record `COc1cc(/C=C/C(=O)c2cccc3ccccc23)cc(OC)c1OC` : what is its GI50 with HCT-116?
3.82 µM (inactive)

Record `O=C(O)c1ccc(NC(NC(=O)C(C(F)(F)F)C(F)(F)F)(C(F)(F)F)C(F)(F)F)cc1` : what is its GI50 with HCT-116?
> 100 µM (inactive)

Record `CSc1ccc2c(cc1=O)[C@@H](NC(=O)c1ccc([N+](=O)[O-])cc1)CCc1cc(O)c(O)c(O)c1-2` : what is its GI50 with HCT-116?
34.8 µM (inactive)

Record `O=C1Nc2nnc(S)n2NC12c1ccccc1-c1ccccc12` : what is its GI50 with HCT-116?
24.2 µM (inactive)

Record `[O-][Cl+3]([O-])([O-])[O-].[O-][Cl+3]([O-])([O-])[O-].c1ccn2c(N3CCCC3)[n+]3c4ccccc4n4c(N5CCCC5)[n+]5ccccc5c4c3c2c1` : what is its GI50 with HCT-116?
> 100 µM (inactive)

Record `N#CC[N+]1(Cc2ccccn2)CCCC1.O=S(=O)([O-])c1ccccc1` : what is its GI50 with HCT-116?
> 100 µM (inactive)

Record `COC(=O)CCCCC/C(=C\C(=O)C(Cl)(Cl)Cl)OC` : what is its GI50 with HCT-116?
20.2 µM (inactive)

Record `CCCCCCC(=O)CC(=O)C(=O)Nc1ccccc1C` : what is its GI50 with HCT-116?
> 100 µM (inactive)

Record `CCOC(=O)NC(Nc1ccc(OC(F)(F)F)cc1)(C(F)(F)F)C(F)(F)F` : what is its GI50 with HCT-116?
> 100 µM (inactive)

====

# Test system: OVCAR-5
# test-protocol: NCI tumour cell line growth inhibition, 48 h
Active and inactive are the calls of the source. No stated cut-off is given here; in the data, active = GI50 up to about 1.1 µM and inactive = higher. Square brackets hold non-standard residues; d marks the D form. Peptide text beside a SMILES is read from it. * marks the point of attachment. X26 = COC1=CC(=O)N(C(=O)[C@@H](O*)C(C)C)[C@H]1Cc1ccccc1; NMeL = CN[C@@H](CC(C)C)C(=O)O; Hexanoyl = CCCCCC(=O)*
measured-attribute: GI50

Previously resolved entries follow.
# compound, measured-on, recorded-value
rows = [
    ("Cc1ccc2c(c1C)CC1(Cc3c(C)ccc(C)c3C1=O)C2=O (stereo not given)", "OVCAR-5", "> 100 µM (inactive)"),
    ("Cc1cc2c(c(O)c1-c1c(C)cc(O)c3c1C(=O)C=CC3=O)C(=O)C=CC2=O", "OVCAR-5", "2.62 µM (inactive)"),
]

Quick check: GI50 of CCCCCCCCCCCCCCCCOCC(Cl)COP(=O)(O)OP(=O)(O)OCC1OC(n2cc(C)c(=O)[nH]c2=O)CC1O (stereo not given) ?
95.1 µM (inactive)

Quick check: GI50 of COc1nc(=O)n(C2CC(N=[N+]=[N-])C(CO)O2)cc1C (stereo not given) ?
> 100 µM (inactive)

Quick check: GI50 of CCC(=O)C(C(C)/C=C/CCSc1ccccc1)C(O)CCCCCC(=O)OC (stereo not given) ?
> 100 µM (inactive)

Quick check: GI50 of O=C1C2C=CC(C2)C(c2ccc(O)cc2)N1O (stereo not given) ?
> 100 µM (inactive)

Quick check: GI50 of `Cc1cc(=O)[nH]c(-n2[nH]c3c(c2=O)CCCC3)n1` ?
69 µM (inactive)

Quick check: GI50 of CCCCCC(=O)N[C@H](C(=O)N[C@H](C(=O)N(C)[C@@H](CC(C)C)C(=O)N1CCC[C@H]1C(=O)N1CCC[C@H]1C(=O)O[C@H](C(=O)N1C(=O)C=C(OC)[C@@H]1Cc1ccccc1)C(C)C)C(C)C)C(C)C (Hexanoyl-VV[NMeL]PP-X26) ?
> 100 µM (inactive)

Quick check: GI50 of `O=C(c1ccccc1)c1ccc(N2C(=O)/C(=C/c3ccccc3S)N=C2c2ccccc2)c(N2C(=O)/C(=C/c3ccccc3S)N=C2c2ccccc2)c1` ?
> 100 µM (inactive)

====

# Test system: SW-620
# test-protocol: NCI tumour cell line growth inhibition, 48 h
Calls of active or inactive are those of the source. No stated cut-off is given here; in the data, active = GI50 up to about 1.1 µM and inactive = higher.
Let's look at some compounds and their measured GI50.

Previously resolved entries follow.
# compound, GI50
rows = [
    ("Cc1cc(C)n(C(=O)CSc2nc3ccc(I)cc3c(=O)n2Cc2ccccc2)n1", "87.1 µM (inactive)"),
    ("CNC(=O)CN1CC(=O)N(C)C(=O)C1", "> 100 µM (inactive)"),
    ("CC(=O)OC(C)c1cc2c(s1)C(=O)c1c(C(C)OC(C)=O)csc1C2=O (stereo not drawn)", "0.0545 µM (active)"),
]

Quick check: GI50 of `C/N=c1\ss/c(=N\C(=S)N(C)C)n1C1CCCCC1` ?
> 31.6 µM (inactive)

Quick check: GI50 of `C/C(=N/NC(=S)N1CCCCCC1)c1cccc(/C(C)=N\NC(=S)N2CCCCCC2)n1` ?
1.11 µM (active)

Quick check: GI50 of O=C1c2cccc3cccc(c23)C2NCCCN12 (stereo not drawn) ?
94 µM (inactive)

Quick check: GI50 of `COc1ccc(C(=O)CC(=O)C(=O)Nc2ccc(C)c(C)c2)cc1` ?
28.4 µM (inactive)

Quick check: GI50 of `Cc1cc(OCc2nnc3n2N=C(c2cc(F)c(Cl)cc2Cl)/C(=C/c2ccc(Cl)cc2)S3)ccc1Cl` ?
17.4 µM (inactive)

====

# Tested on: M14
# test-protocol: NCI tumour cell line growth inhibition, 48 h
The source made the active and inactive calls. Cut-off read from the data, not from the text of the source: active = GI50 up to about 1.1 µM and inactive = higher.
Answer with one of the outcomes given here: active, inactive

# compound, group-label
records = [
    ("C=C(C)C1CC/C(C)=C/CCC2(C)OC2CC/C(CO)=C\\C1O (configuration not stated)", "inactive"),
    ("COc1cc(/C=C/c2ccc(S(N)(=O)=O)cc2)cc(OC)c1", "inactive"),
    ("c1nc(OCC2CCCCC2)c2nc[nH]c2n1", "inactive"),
    ("CC1(C)N=C(N)N=C(N)N1c1cccc(OCc2cccc(N)c2)c1", "inactive"),
    ("CC1(C)Cc2c(C#N)c(N)c3c(c2CO1)C(=O)OC3=O", "inactive"),
    ("N#CC(C#N)=Cc1ccc2c(c1)OC(Cl)O2 (configuration not stated)", "inactive"),
    ("CC1(C)OC2[C@@H](CO[C@@]3([C@H]4OC(C)(C)O[C@@H]4CO)OC(C)(C)O[C@@H]23)O1 (some centres not stated)", "inactive"),
    ("Cc1cc(-c2cccc3ccccc23)c(C#N)c(=S)n1C1OC(CO)C(O)C(O)C1O (configuration not stated)", "inactive"),
    ("Cn1cnc([N+](=O)[O-])c1Sc1nc2ccccc2s1", "inactive"),
    ("COc1ccc(-c2nc(N)n(C)c2SSc2c(-c3ccc(OC)cc3)nc(N)n2C)cc1", "inactive"),
]

Can you look up the reported call for Nc1cc(C(=O)NC2C3CC4CC(C3)CC2C4)nc(S)n1 (configuration not stated) for me?
inactive

Can you look up the reported call for C=CCOc1cccc(C2(O)c3ccccc3C3=NCCCN32)c1 (configuration not stated) for me?
inactive

Can you look up the reported call for CC(=O)OC(CC(C)C)P1(=O)N(CC(C)(C)C)[C@@H]2CCCC[C@H]2N1CC(C)(C)C (some centres not stated) for me?
inactive

Can you look up the reported call for `CCCCN1C(=O)c2c(-c3sccc3N)sc(-c3sccc3N)c2C1=O` for me?
inactive

Can you look up the reported call for CC(=O)C1C(=O)C(=O)N(c2cccc([N+](=O)[O-])c2)C1=O (configuration not stated) for me?
inactive

Can you look up the reported call for `CCC1=[N+]([O-])C(C)(C)NC1(C)C` for me?
inactive

Can you look up the reported call for COc1nc(=O)n(C2CC(N=[N+]=[N-])C(CO)O2)cc1C (configuration not stated) for me?
inactive

Can you look up the reported call for Cn1cc(C2NC(=O)c3ccccc3N2)c2ccccc21 (configuration not stated) for me?
active

Can you look up the reported call for `Cc1cc(=O)[nH]c(-n2[nH]c3c(c2=O)CCCC3)n1` for me?
inactive

Can you look up the reported call for `C1=N/CCNCCNCC/N=C/c2ccccc2OCc2cccc(n2)COc2ccccc2/1` for me?
inactive

Can you look up the reported call for `COc1ccc2c(c1)-c1nc(=S)n(CCCN(C)C)c3ccc([N+](=O)[O-])c(c13)N2` for me?
inactive

Can you look up the reported call for `COC(=O)CCCC(=O)NC1=C(Nc2ccc(OC)cc2)C(=O)c2ccccc2C1=O` for me?
inactive
